Entry source: patent US20250250357A1

The entries below come with measured OD450 nm values attached.
target.system: T1, human MSLN-hFc protein (Acro, Cat. No. MSN-H5253) (human, UniProt Q13421 296-580)
T1 construct: bought protein; also called human MSLN full-length protein; not shown: human Fc (hFc) of the bought protein
T1 sequence (Q13421 other isoform, or with tags, fused parts or gaps limits assumed): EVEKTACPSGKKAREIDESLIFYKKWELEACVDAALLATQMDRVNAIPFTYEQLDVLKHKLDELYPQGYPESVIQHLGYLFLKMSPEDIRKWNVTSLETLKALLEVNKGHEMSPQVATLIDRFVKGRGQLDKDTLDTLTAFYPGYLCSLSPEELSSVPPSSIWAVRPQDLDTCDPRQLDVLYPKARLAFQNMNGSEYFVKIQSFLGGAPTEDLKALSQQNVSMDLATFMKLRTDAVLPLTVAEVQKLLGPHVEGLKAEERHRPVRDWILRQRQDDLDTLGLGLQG
test.details: ELISA, coated human MSLN-hFc, antibody 10 nM
Please give the numeric answer without any surrounding text.

// known answers, use as guide
| binder | measured.metric | recorded.value |
| --- | --- | --- |
| F2.39.3-H2 (scFv, not shown: small tags and cut ends, also called S009-F2.39.3 humanized VH1 + VL2) scFv: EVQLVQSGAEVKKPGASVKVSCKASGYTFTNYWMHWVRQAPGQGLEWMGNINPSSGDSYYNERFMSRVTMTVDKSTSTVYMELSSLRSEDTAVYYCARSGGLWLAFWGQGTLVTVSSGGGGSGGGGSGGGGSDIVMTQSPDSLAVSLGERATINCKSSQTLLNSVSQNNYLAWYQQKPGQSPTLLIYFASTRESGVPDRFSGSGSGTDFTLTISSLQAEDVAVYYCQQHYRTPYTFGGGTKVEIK | OD450 nm | 1.19 |
| F2.39.3-H5 (scFv, not shown: small tags and cut ends, also called S009-F2.39.3 humanized VH2 + VL1) scFv: EVQLVQSGAEVKKPGASVKVSCKASGYTFTNYWMHWVRQAPGQGLEWMGNINPSSGDSYYNERFMSRVTMTVDKSTSTAYMELSSLRSEDTAVYYCARSGGLWLAFWGQGTLVTVSSGGGGSGGGGSGGGGSDIVMTQSPDSLAVSLGERATINCKSSQTLLNSVSQNNYLAWYQQKPGQSPKLLIYFASTRESGVPDRFSGSGSGTDFTLTISSLQAEDVAVYYCQQHYRTPYTFGGGTKVEIK | OD450 nm | 1.21 |

Note: attention shifts to another entry.
OD450 nm reading for F2.39.3-H1 (scFv, not shown: small tags and cut ends, expressed as VH-(G4S)3-VL-his or VL-(G4S)3-VH-his; also called S009-F2.39.3 humanized VH1 + VL1) scFv: EVQLVQSGAEVKKPGASVKVSCKASGYTFTNYWMHWVRQAPGQGLEWMGNINPSSGDSYYNERFMSRVTMTVDKSTSTVYMELSSLRSEDTAVYYCARSGGLWLAFWGQGTLVTVSSGGGGSGGGGSGGGGSDIVMTQSPDSLAVSLGERATINCKSSQTLLNSVSQNNYLAWYQQKPGQSPKLLIYFASTRESGVPDRFSGSGSGTDFTLTISSLQAEDVAVYYCQQHYRTPYTFGGGTKVEIK : 1.23
